# STUDY_TARGET: BRD9 bromodomain (BRD9 BD) (Homo sapiens, UniProt Q9H8M2)
# METHOD_DESCRIPTION: AlphaScreen competition
OBSERVATION_TYPE: IC50 (µM)

CS(=O)(=O)c1nc(NCCCn2cccn2)cc(-c2ccc(OCCCN3CCN(CCOCCOCCOc4cccc5c4C(=O)N(C4CCC(=O)NC4=O)C5=O)CC3)cc2)n1 (centres unmarked)    0.996
CS(=O)(=O)c1nc(NCCCn2cccn2)cc(-c2ccc(OCCCN3CCN(CCCCCCOc4cccc5c4C(=O)N(C4CCC(=O)NC4=O)C5=O)CC3)cc2)n1 (centres unmarked)    0.844

* * *

# STUDY_TARGET: BPTF bromodomain (BPTF BD) (Homo sapiens)
# METHOD_DESCRIPTION: AlphaScreen competition
pIC50: −log10 of the molar value.
OBSERVATION_TYPE: pIC50

1: CN(CCCOc1ccc(-c2cc(NCCCn3cccn3)nc(S(C)(=O)=O)n2)cc1)CCOCCOCCOc1cccc2c1C(=O)N(C1CCC(=O)NC1=O)C2=O (stereo not drawn)
2: CS(=O)(=O)c1nc(NCCCn2cccn2)cc(-c2ccc(OCCCN3CCN(CCCCCCOc4cccc5c4C(=O)N(C4CCC(=O)NC4=O)C5=O)CC3)cc2)n1 (stereo not drawn)
Hello, I am sorting some records. Could you say if 1 or 2 has the smaller pIC50 value? Record your answer as the label of the chosen record. 1
(1: 6.44, 2: 6.84)

* * *

# STUDY_TARGET: CECR2 bromodomain (CECR2 BD) (Homo sapiens)
# METHOD_DESCRIPTION: AlphaScreen competition
OBSERVATION_TYPE: IC50 (nM)

CS(=O)(=O)c1nc(NCCCn2cccn2)cc(-c2ccc(OCCCN3CCN(CCOCCOCCOc4cccc5c4C(=O)N(C4CCC(=O)NC4=O)C5=O)CC3)cc2)n1 (centres unmarked)    33
CS(=O)(=O)c1nc(NCCCn2cccn2)cc(-c2ccc(OCCCN3CCN(CCCCCCOc4cccc5c4C(=O)N(C4CCC(=O)NC4=O)C5=O)CC3)cc2)n1 (centres unmarked)    24
